- Study system: T1, human TMEM106B (human, UniProt Q9NUM4 2-274)
- T1 construct: Full-length, on transiently transfected HEK293 cells, or natively expressed on HeLa, U251 and A549 cells; also called huTMEM106B; huTMEM
- Experiment description: FACS A549, 10 ug/ml
This listing pairs binders with measured MFI.

Consider the following illustrative entries.
| Binder | Result |
| --- | --- |
| anti-TMEM106B antibody TM-6 (antibody, V domains shown, mouse IgG from hybridoma) VH: QVQLQQSGAELVKPGASVKLSCKASGYTFTEYTIHWVKQRSGQGLEWIGWFYPGSTYIDYNEKFKDKATLTADKSSSTVYLELSRLTSEDSAVYFCARHEEDYSNWFPFWGQGTLVTVSA VL: DIQMSQSSSYLSVSLGGRVTITCKASDHINNWLAWYQQKPGNAPRLLISGATSLETGVPSRFSGSGSGKDYTLSITSLQTEDVATYYCQQYWSSPYTFGGGTKLEIK | 544 |
| anti-TMEM106B antibody TM-9 (antibody, V domains shown) VH: EVQLVESGGDLVKPGGSLKLSCVASGFTFSGYGMSWVRQTPDKRLEWVATISSGSFYIYYPDSVKGRLTVSRDNAKNTLYLQMSSLKSEDTAIYYCARQNFYYGCEDYWGQGTTLTVSS VL: DIVMTQAAFSNPVTLGTSASISCRSSKSLLHSNGITYLYWYLQKPGQSPQLLIYQMSNLASGVPNRFSSSGSGTDFTLRISRVEAEDVGVYYCAQNLELPWTFGGGTKLEIK | 7090 |

// next item, MFI requested
Incoming: Looking for the measured MFI of anti-TMEM106B antibody TM-31 (antibody, V domains shown, mouse IgG from hybridoma) VH: QVQLQQSGAELAKPGASVKVSCKASGYTFISYWMNWVKQRPGQGLEWIGYINPTSGYTRYNQKFKDKATLTADKSSSTAYMQLSSLTYEDSAVYYCARSPPTVVLIGYFDYWGQGTTLTVSS VL: DIKMTQSPSSMYASLGERVTFTCKASQDINSYLSWFQQKPGKSPKTLIYRGNGLVDGVPSRFSGSGSGQDYSLTISSLEYEDMGIYYCLQYDEFPFTFASGTKLEIK , can you help?
Outgoing: 527
